IC50 values by entry
Molecular target: DPB1*04:02
Test: Peptide binding to HLA-DP allele, competition assay

{"Compound": "CC(C)C[C@H](NC(=O)[C@H](C)NC(=O)[C@H](Cc1ccccc1)NC(=O)[C@H](CO)NC(=O)[C@H](CO)NC(=O)[C@@H](NC(=O)[C@H](CCCNC(=N)N)NC(=O)[C@H](CC(C)C)NC(=O)[C@H](CCCCN)NC(=O)[C@H](CCCCN)NC(=O)[C@@H](N)Cc1ccc(O)cc1)[C@@H](C)O)C(=O)N[C@@H](CC(N)=O)C(=O)N[C@@H](CC(C)C)C(=O)N1CCC[C@H]1C(=O)N[C@H](C(=O)O)[C@@H](C)O [Peptide 3563.0022]", "IC50, nM": 67}
{"Compound": "CC(C)C[C@H](NC(=O)[C@H](CC(C)C)NC(=O)[C@H](CC(C)C)NC(=O)[C@H](CC(C)C)NC(=O)[C@H](C)NC(=O)[C@@H]1CCCN1C(=O)[C@H](CC(C)C)NC(=O)[C@H](C)NC(=O)[C@H](CC(C)C)NC(=O)[C@H](CC(C)C)NC(=O)[C@H](C)NC(=O)[C@H](CC(C)C)NC(=O)[C@H](CC(C)C)NC(=O)[C@H](C)NC(=O)[C@@H]1CCCN1)C(=O)O [Peptide 3563.001]", "IC50, nM": 1630}

====

Molecular target: DQB1*05:01
Assay: Peptide binding to HLA-DQ allele, competition assay
Measure Name: IC50

{"Compound": "CC[C@H](C)[C@H](NC(=O)[C@H](CC(=O)O)NC(=O)[C@H](CC(C)C)NC(=O)[C@H](CC(C)C)NC(=O)[C@H](CCC(=O)O)NC(=O)[C@@H](N)CCC(N)=O)C(=O)N[C@@H](C)C(=O)N[C@@H](CC(N)=O)C(=O)N[C@@H](Cc1ccc(O)cc1)C(=O)N[C@@H](CC(C)C)C(=O)N[C@@H](CCSC)C(=O)N[C@@H](CCC(=O)O)C(=O)N[C@@H](CCC(N)=O)C(=O)N[C@H](C(=O)N[C@@H](CCC(N)=O)C(=O)O)[C@@H](C)CC [Peptide 3563.0003]", "Measure Name": "IC50", "Reported Result": "4 nM"}

====

IC50 values by entry
Target: DPB1*04:02
Assay: Peptide binding to HLA-DP allele, competition assay
Parameters: species or system human
Source text: Peptide binding to MHC-II requires anchor residues in certain positions and thus can be predicted using computer algorithms. Affinity can be measured experimentally using a competition assay (1). Both are excellent screening tools. However, affinity must be measured separately for each MHC-II allele. Humans express molecules encoded in four different MHC-II loci, denominated HLA-DRB1, DRB3/4/5, DP and DQ. […]

{"Compound": "CC[C@H](C)[C@H](NC(=O)[C@H](CO)NC(=O)[C@H](Cc1ccc(O)cc1)NC(=O)[C@H](CC(C)C)NC(=O)[C@H](CCCCN)NC(=O)CN)C(=O)N[C@@H](CC(C)C)C(=O)N[C@@H](CCCCN)C(=O)N[C@H](C(=O)N[C@@H](CCC(N)=O)C(=O)N[C@@H](CO)C(=O)N1CCC[C@H]1C(=O)N[C@@H](CC(C)C)C(=O)N[C@@H](Cc1ccccc1)C(=O)N[C@H](C(=O)O)[C@@H](C)O)[C@@H](C)CC [Peptide 3563.0016]", "IC50 (nM)": 419}
{"Compound": "CC[C@H](C)[C@H](N)C(=O)N[C@@H](CC(=O)O)C(=O)N[C@@H](CC(C)C)C(=O)N[C@@H](CO)C(=O)N[C@H](C(=O)N[C@@H](CCC(N)=O)C(=O)N[C@@H](CC(N)=O)C(=O)N[C@@H](Cc1ccc(O)cc1)C(=O)N[C@@H](Cc1c[nH]cn1)C(=O)N[C@H](C(=O)N[C@@H](Cc1ccccc1)C(=O)N[C@@H](CC(C)C)C(=O)N[C@H](C(=O)N[C@@H](Cc1ccc(O)cc1)C(=O)N[C@H](C(=O)O)[C@@H](C)CC)[C@@H](C)CC)[C@@H](C)O)[C@@H](C)CC [Peptide 3563.0029]", "IC50 (nM)": 15600}
{"Compound": "CSCC[C@H](NC(=O)[C@H](CC(C)C)NC(=O)[C@H](Cc1ccc(O)cc1)NC(=O)[C@H](C)NC(=O)[C@H](C)NC(=O)[C@H](CC(C)C)NC(=O)[C@H](CCCNC(=N)N)NC(=O)[C@H](CCCCN)NC(=O)[C@@H](N)CC(=O)O)C(=O)N[C@@H](CC(C)C)C(=O)N[C@@H](CCSC)C(=O)N[C@@H](CCCNC(=N)N)C(=O)N[C@@H](CO)C(=O)N1CCC[C@H]1C(=O)N[C@@H](CO)C(=O)O [Peptide 3563.0004]", "IC50 (nM)": 23}
{"Compound": "CC[C@H](C)[C@H](NC(=O)[C@@H](NC(=O)[C@@H](N)CC(C)C)[C@@H](C)CC)C(=O)N[C@@H](CC(N)=O)C(=O)N[C@@H](Cc1c[nH]c2ccccc12)C(=O)N[C@@H](CC(C)C)C(=O)N[C@@H](CCC(N)=O)C(=O)N[C@@H](CCC(=O)O)C(=O)N[C@@H](C)C(=O)N[C@@H](CC(C)C)C(=O)N[C@@H](CO)C(=O)N[C@@H](CO)C(=O)N[C@@H](C)C(=O)N[C@@H](CO)C(=O)N[C@@H](CC(C)C)C(=O)O [Peptide 3563.0015]", "IC50 (nM)": 2050}
{"Compound": "CC[C@H](C)[C@H](NC(=O)[C@H](CC(C)C)NC(=O)[C@@H](N)Cc1ccccc1)C(=O)N[C@@H](Cc1ccc(O)cc1)C(=O)N[C@H](C(=O)N[C@H](C(=O)N[C@@H](CCC(=O)O)C(=O)N[C@@H](CC(C)C)C(=O)N[C@@H](CC(C)C)C(=O)N[C@@H](CCCCN)C(=O)N[C@@H](CCCCN)C(=O)N[C@@H](CC(C)C)C(=O)N[C@@H](CCC(N)=O)C(=O)N[C@@H](CO)C(=O)N[C@H](C(=O)O)[C@@H](C)O)[C@@H](C)O)[C@@H](C)CC [Peptide 3563.0030]", "IC50 (nM)": 8.6}
{"Compound": "CC[C@H](C)[C@H](NC(=O)[C@H](C)NC(=O)[C@H](CCCCN)NC(=O)[C@H](Cc1ccccc1)NC(=O)[C@@H](NC(=O)[C@H](CCC(=O)O)NC(=O)[C@@H](N)CCC(N)=O)C(C)C)C(=O)N[C@@H](CCC(N)=O)C(=O)N[C@@H](CO)C(=O)N[C@@H](CC(C)C)C(=O)N[C@@H](CCCCN)C(=O)N[C@H](C(=O)N[C@H](C(=O)N[C@@H](CCC(=O)O)C(=O)N[C@H](C(=O)O)C(C)C)[C@@H](C)O)[C@@H](C)O [Peptide 3563.0024]", "IC50 (nM)": 93}
{"Compound": "CC[C@H](C)[C@H](NC(=O)[C@H](Cc1ccc(O)cc1)NC(=O)[C@H](Cc1c[nH]cn1)NC(=O)[C@H](CC(C)C)NC(=O)[C@@H](N)Cc1ccccc1)C(=O)N[C@@H](Cc1ccccc1)C(=O)N[C@@H](CCSC)C(=O)N[C@@H](CCC(=O)O)C(=O)N[C@@H](CC(N)=O)C(=O)N[C@@H](C)C(=O)N[C@@H](Cc1ccccc1)C(=O)N[C@@H](CCC(=O)O)C(=O)N[C@@H](CC(C)C)C(=O)N1CCC[C@H]1C(=O)N[C@H](C(=O)O)[C@@H](C)O [Peptide 3563.0006]", "IC50 (nM)": 4.4}
